target: IDH2 R172K_G260A cis (Homo sapiens, UniProt P48735, G260A/R172K); construct: expressed in transfected cells; host or cells: U-87 MG; assay: Inhibition of 2-HG production in IDH2 mutant U-87 MG cells; assay type: cell-based; details: 16 hours incubation, 50K cells/well, 100 μl media/well, read-out: Relative IC50 (nM) Mean, inhibition of 2-HG production
result-type: IC50 (nM)
Output spec: scalar in nM, unitless text.

Entry C=CC(=O)N1CCN([C@@H](CC2CC2)c2ccc([C@H](C)Nc3ncc4c(n3)N(CC)C(=O)OC4)cc2)CC1 [Compound A] : IC50 on IDH2 R172K_G260A cis (Homo sapiens, UniProt P48735, G260A/R172K) = 13

---

target: IDH2 R140Q (Homo sapiens, UniProt P48735, R140Q); construct: expressed in transfected cells; host or cells: U-87 MG; assay: Inhibition of 2-HG production in IDH2 mutant U-87 MG cells; format: cell-based; conditions: 72 hours incubation, 12.5K cells/well, 150 μl media/well, read-out: IC50, inhibition of 2-HG production
result-type: IC50 (nM)
Numbers only; they are read as nM.

Entry under test: C=CC(=O)N1CCN([C@@H](CC2CC2)c2ccc([C@H](C)Nc3ncc4c(n3)N(CC)C(=O)OC4)cc2)CC1 . Its IC50 was 28.4

---

Molecular target: IDH2 R140Q + 1319M trans (Homo sapiens, UniProt P48735, I319M/R140Q)
Sequence (P48735 40-452 R140Q): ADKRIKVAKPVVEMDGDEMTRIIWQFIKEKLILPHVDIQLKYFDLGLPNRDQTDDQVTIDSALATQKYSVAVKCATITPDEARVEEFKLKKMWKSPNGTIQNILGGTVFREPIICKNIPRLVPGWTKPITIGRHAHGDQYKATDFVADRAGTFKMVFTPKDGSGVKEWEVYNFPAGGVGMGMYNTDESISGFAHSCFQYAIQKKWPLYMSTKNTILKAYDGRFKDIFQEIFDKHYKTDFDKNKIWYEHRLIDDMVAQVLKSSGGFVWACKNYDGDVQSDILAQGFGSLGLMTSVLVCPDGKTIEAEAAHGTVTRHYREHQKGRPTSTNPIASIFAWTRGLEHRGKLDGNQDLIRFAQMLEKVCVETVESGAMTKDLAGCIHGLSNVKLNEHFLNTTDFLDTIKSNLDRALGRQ
Sequence (P48735 40-452 I319M): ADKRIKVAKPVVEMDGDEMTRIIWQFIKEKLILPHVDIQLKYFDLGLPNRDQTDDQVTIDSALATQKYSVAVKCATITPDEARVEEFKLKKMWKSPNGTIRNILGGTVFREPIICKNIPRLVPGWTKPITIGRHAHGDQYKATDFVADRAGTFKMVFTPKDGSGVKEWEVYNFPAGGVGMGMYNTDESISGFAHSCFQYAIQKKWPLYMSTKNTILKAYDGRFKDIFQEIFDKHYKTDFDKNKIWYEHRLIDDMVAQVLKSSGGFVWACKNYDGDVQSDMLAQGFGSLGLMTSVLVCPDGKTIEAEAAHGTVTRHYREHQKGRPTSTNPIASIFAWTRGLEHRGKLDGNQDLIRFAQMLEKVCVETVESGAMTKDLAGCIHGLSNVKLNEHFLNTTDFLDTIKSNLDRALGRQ
Test: Inhibition of 2-HG production in IDH2 mutant U-87 MG cells
Format: cell-based
Conditions: IDH2 R140Q + 1319M trans, 72 hours incubation, 12.5K cells/well, 150 μl media/well, read-out: IC50, inhibition of 2-HG production
result-type: IC50 (µM)
Lab book: enter the figure in µM, no units written.

The compound listed as C=CC(=O)N1CCN([C@@H](CC2CC2)c2ccc([C@H](C)Nc3ncc4c(n3)N(CC)C(=O)OC4)cc2)CC1 shows IC50 equal to 0.0127

---

target: IDH2 R140L_Q316E cis (Homo sapiens, UniProt P48735, Q316E/R140L); construct: expressed in transfected cells; host or cells: U-87 MG; experiment: Inhibition of 2-HG production in IDH2 mutant U-87 MG cells; assay type: cell-based; conditions: 16 hours incubation, 50K cells/well, 100 μl media/well, read-out: Relative IC50 (nM) Mean, inhibition of 2-HG production
result-type: IC50
Please provide the amount together with its unit, number first.

response.value for C=CC(=O)N1CCN([C@@H](CC2CC2)c2ccc([C@H](C)Nc3ncc4c(n3)N(CC)C(=O)OC4)cc2)CC1 (field: IC50) = 145 nM

---

Target: IDH2 R140Q + 1319M trans (Homo sapiens, UniProt P48735, I319M/R140Q)
Sequence (P48735 40-452 R140Q): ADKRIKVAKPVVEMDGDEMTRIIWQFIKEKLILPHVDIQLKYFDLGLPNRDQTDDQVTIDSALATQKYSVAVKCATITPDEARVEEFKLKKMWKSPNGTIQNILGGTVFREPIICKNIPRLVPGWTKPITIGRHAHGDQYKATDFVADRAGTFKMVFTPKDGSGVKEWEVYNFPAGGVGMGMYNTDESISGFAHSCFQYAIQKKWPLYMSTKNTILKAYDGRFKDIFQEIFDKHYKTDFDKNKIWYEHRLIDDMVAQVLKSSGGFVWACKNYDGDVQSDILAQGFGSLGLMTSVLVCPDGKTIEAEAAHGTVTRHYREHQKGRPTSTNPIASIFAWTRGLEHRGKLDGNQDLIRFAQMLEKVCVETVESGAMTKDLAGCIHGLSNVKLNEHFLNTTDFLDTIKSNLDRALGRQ
Sequence (P48735 40-452 I319M): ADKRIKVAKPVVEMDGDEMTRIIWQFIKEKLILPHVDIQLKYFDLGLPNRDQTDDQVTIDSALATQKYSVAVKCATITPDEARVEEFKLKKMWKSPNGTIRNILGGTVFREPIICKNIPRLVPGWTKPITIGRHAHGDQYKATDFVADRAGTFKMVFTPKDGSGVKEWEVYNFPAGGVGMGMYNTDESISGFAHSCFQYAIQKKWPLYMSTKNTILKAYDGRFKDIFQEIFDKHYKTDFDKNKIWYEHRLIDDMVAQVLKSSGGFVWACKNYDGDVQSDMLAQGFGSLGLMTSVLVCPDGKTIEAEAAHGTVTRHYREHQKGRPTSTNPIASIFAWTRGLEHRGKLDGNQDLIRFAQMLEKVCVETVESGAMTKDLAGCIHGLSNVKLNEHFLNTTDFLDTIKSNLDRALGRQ
Experiment: Inhibition of 2-HG production in IDH2 mutant U-87 MG cells
Assay type: cell-based
Conditions: IDH2 R140Q_I319M trans, 72 hours incubation, 12.5K cells/well, read-out: Relative IC50 (nM) Mean, inhibition of 2-HG production
result-type: IC50 (nM)
Kindly answer with a numeric value in nM, unit omitted.

Notebook: C=CC(=O)N1CCN([C@@H](CC2CC2)c2ccc([C@H](C)Nc3ncc4c(n3)N(CC)C(=O)OC4)cc2)CC1 , IC50 read as 18

---

target: IDH2 R140Q_Q316E cis (Homo sapiens, UniProt P48735, Q316E/R140Q); construct: expressed in transfected cells; host or cells: U-87 MG; experiment: Inhibition of 2-HG production in IDH2 mutant U-87 MG cells; type: cell-based; conditions: 16 hours incubation, 50K cells/well, 100 μl media/well, read-out: Relative IC50 (nM) Mean, inhibition of 2-HG production
result-type: IC50 (nM)
Please give a number only; it is taken to be in nM.

Entry C=CC(=O)N1CCN([C@@H](CC2CC2)c2ccc([C@H](C)Nc3ncc4c(n3)N(CC)C(=O)OC4)cc2)CC1 — recorded IC50 = 16

---

target: IDH2 R172K_Q316E cis (Homo sapiens, UniProt P48735, Q316E/R172K); construct: expressed in transfected cells; host or cells: U-87 MG; experiment: Inhibition of 2-HG production in IDH2 mutant U-87 MG cells; assay type: cell-based; details: 16 hours incubation, 50K cells/well, 100 μl media/well, read-out: Relative IC50 (nM) Mean, inhibition of 2-HG production
result-type: IC50 (nM)
Answer format: numeric, nM implied, no suffix.

IC50 in this record for C=CC(=O)N1CCN([C@@H](CC2CC2)c2ccc([C@H](C)Nc3ncc4c(n3)N(CC)C(=O)OC4)cc2)CC1 : 76

---

biological target: IDH2 R172K (Homo sapiens, UniProt P48735, R172K); test: Inhibition of 2-HG production in IDH2 mutant U-87 MG cells; type: cell-based; conditions: 16 hours incubation, 50K cells/well, 100 μl media/well, read-out: Relative IC50 (nM) Mean, inhibition of 2-HG production
result-type: IC50 (nM)
I only need the number, in nM, no unit after it.

Form field IC50 for item C=CC(=O)N1CCN([C@@H](CC2CC2)c2ccc([C@H](C)Nc3ncc4c(n3)N(CC)C(=O)OC4)cc2)CC1 on IDH2 R172K (Homo sapiens, UniProt P48735, R172K): 56
